# Test system: HL-60
# TEST METHOD NOTES: Evaluated for its ability to induce phagocytosis in human myeloid leukemia cells (HL-60)
# Format: functional
# Parameters: unit not given here
Doc: threshold 100 (exclusive). Items with Phagocytosis beneath it return Yes; others return No.

Field: below-cutoff. Rule: recorded Phagocytosis strictly less than 100. Subject: `C[C@H](CCC(F)(F)C(C)(C)O)[C@H]1CC[C@H]2/C(=C/[C@@H]3OOCC4=C3C[C@@H](O)CC4)CCC[C@]12C.C[C@H](CCC(F)(F)C(C)(C)O)[C@H]1CC[C@H]2/C(=C/[C@H]3OOCC4=C3C[C@@H](O)CC4)CCC[C@]12C`
Yes

Next up: `C[C@H](CCCC(O)(C(F)(F)F)C(F)(F)F)[C@H]1CC[C@H]2/C(=C/[C@@H]3OOCC4=C3C[C@@H](O)CC4)CCC[C@]12C.C[C@H](CCCC(O)(C(F)(F)F)C(F)(F)F)[C@H]1CC[C@H]2/C(=C/[C@H]3OOCC4=C3C[C@@H](O)CC4)CCC[C@]12C`
Yes

Next up: `C=C1CC[C@H](O)C/C1=C/C=C1\CCC[C@]2(C)[C@@H]([C@H](C)CCCC(O)(C(F)(F)F)C(F)(F)F)CC[C@@H]12`
No

Next up: `C=C1CC[C@H](O)C/C1=C/C=C1\CCC[C@]2(C)[C@@H]([C@H](C)CCC(F)(F)C(C)(C)O)CC[C@@H]12`
No

Next up: `C[C@H](CCCC(C)(C)O)[C@H]1CC[C@H]2/C(=C/[C@@H]3OOCC4=C3C[C@@H](O)CC4)CCC[C@]12C`
No

Next up: `CC(C)[C@H](O)CC[C@@H](C)[C@H]1CC[C@H]2/C(=C/[C@H]3OOCC4=C3C[C@@H](O)C[C@@H]4O)CCC[C@]12C`
No

Next up: C=C1CC[C@H](O)C/C1=C/C=C1\CCC[C@]2(C)[C@@H]([C@H](C)CCCC(C)(C)O)CC[C@@H]12 [CALCIFEDIOL ANHYDROUS]
No

====

So I've got a bunch of compounds here, and I need their Binding activity values.
# ASSAYED SYSTEM: Vitamin D3 receptor (Homo sapiens)
# Sequence (whole entry): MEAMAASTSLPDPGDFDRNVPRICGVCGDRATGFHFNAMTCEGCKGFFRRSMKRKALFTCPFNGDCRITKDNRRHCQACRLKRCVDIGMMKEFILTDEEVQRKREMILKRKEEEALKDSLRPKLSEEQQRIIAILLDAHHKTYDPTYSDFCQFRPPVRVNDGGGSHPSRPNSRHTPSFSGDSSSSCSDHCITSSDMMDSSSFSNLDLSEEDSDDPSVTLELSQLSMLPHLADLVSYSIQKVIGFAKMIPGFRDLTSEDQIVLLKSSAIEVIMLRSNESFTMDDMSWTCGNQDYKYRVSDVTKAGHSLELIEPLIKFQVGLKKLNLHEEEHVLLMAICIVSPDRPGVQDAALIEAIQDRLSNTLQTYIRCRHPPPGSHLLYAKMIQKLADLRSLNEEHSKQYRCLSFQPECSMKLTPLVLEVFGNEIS
Answer as a number with no unit attached.

Param readout = Binding activity; param system = Vitamin D3 receptor (Homo sapiens); param query = `C[C@H](CCCC(C)(C)O)[C@H]1CC[C@H]2/C(=C/[C@@H]3OOCC4=C3C[C@@H](O)C[C@@H]4O)CCC[C@]12C` ; response: value
800

Next up: `CC(C)[C@H](O)CC[C@@H](C)[C@H]1CC[C@H]2/C(=C/[C@H]3OOCC4=C3C[C@@H](O)C[C@@H]4O)CCC[C@]12C`
800

Next up: C=C1CC[C@H](O)C/C1=C/C=C1\CCC[C@]2(C)[C@@H]([C@H](C)CCCC(C)(C)O)CC[C@@H]12 [CALCIFEDIOL ANHYDROUS]
600

Next up: `C=C1/C(=C\C=C2/CCC[C@]3(C)[C@@H]([C@H](C)CC[C@@H](O)C(C)C)CC[C@@H]23)C[C@@H](O)C[C@@H]1O`
1

Next up: `C[C@H](CCCC(O)(C(F)(F)F)C(F)(F)F)[C@H]1CC[C@H]2/C(=C/[C@@H]3OOCC4=C3C[C@@H](O)CC4)CCC[C@]12C.C[C@H](CCCC(O)(C(F)(F)F)C(F)(F)F)[C@H]1CC[C@H]2/C(=C/[C@H]3OOCC4=C3C[C@@H](O)CC4)CCC[C@]12C`
1500

Next up: `C[C@H](CCCC(C)(C)O)[C@H]1CC[C@H]2/C(=C/[C@H]3OOCC4=C3C[C@@H](O)C[C@@H]4O)CCC[C@]12C`
800

Next up: `C[C@H](CCC(F)(F)C(C)(C)O)[C@H]1CC[C@H]2/C(=C/[C@@H]3OOCC4=C3C[C@@H](O)CC4)CCC[C@]12C.C[C@H](CCC(F)(F)C(C)(C)O)[C@H]1CC[C@H]2/C(=C/[C@H]3OOCC4=C3C[C@@H](O)CC4)CCC[C@]12C`
1000

====

So I've got a bunch of compounds here, and I need their Phagocytosis values.
# Test system: HL-60
# TEST METHOD NOTES: Evaluated for its ability to induce phagocytosis in human myeloid leukemia cells (HL-60)
# Format: functional
# Design: unit not given here

Phagocytosis lookup needed for `CC(C)[C@H](O)CC[C@@H](C)[C@H]1CC[C@H]2/C(=C/[C@@H]3OOCC4=C3C[C@@H](O)C[C@@H]4O)CCC[C@]12C` , thanks.
200

Next up: `C[C@H](CCCC(C)(C)O)[C@H]1CC[C@H]2/C(=C/[C@H]3OOCC4=C3C[C@@H](O)CC4)CCC[C@]12C`
120

Next up: `C[C@H](CCCC(C)(C)O)[C@H]1CC[C@H]2/C(=C/[C@@H]3OOCC4=C3C[C@@H](O)C[C@@H]4O)CCC[C@]12C`
200

====

# ASSAYED SYSTEM: Vitamin D3 receptor (Homo sapiens) (UniProt P11473)
# Sequence (whole entry): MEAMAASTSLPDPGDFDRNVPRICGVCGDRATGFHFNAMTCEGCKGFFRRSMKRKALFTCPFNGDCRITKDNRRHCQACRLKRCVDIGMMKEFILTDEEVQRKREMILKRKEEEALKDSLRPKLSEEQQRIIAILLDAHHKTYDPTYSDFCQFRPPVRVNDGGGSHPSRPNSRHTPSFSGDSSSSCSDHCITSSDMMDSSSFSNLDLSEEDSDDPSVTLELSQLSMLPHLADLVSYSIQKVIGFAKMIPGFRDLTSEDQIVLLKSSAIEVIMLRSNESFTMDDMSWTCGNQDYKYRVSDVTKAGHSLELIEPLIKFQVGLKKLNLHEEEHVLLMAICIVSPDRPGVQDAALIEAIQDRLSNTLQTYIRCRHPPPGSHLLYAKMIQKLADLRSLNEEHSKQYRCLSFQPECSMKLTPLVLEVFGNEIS
RECORDED ENDPOINT: Binding activity
Answer as a number with no unit attached.

Param readout = Binding activity; param system = Vitamin D3 receptor (Homo sapiens) (UniProt P11473); param query = `C=C1/C(=C\C=C2/CCC[C@]3(C)[C@@H]([C@H](C)CCCC(C)C)CC[C@@H]23)C[C@@H](O)C[C@@H]1O` ; response: value
800

Next up: `C[C@H](CCCC(C)(C)O)[C@H]1CC[C@H]2/C(=C/[C@@H]3OOCC4=C3C[C@@H](O)CC4)CCC[C@]12C`
3000

Next up: `CC(C)[C@H](O)CC[C@@H](C)[C@H]1CC[C@H]2/C(=C/[C@@H]3OOCC4=C3C[C@@H](O)C[C@@H]4O)CCC[C@]12C`
800

Next up: `C=C1CC[C@H](O)C/C1=C/C=C1\CCC[C@]2(C)[C@@H]([C@H](C)CCCC(O)(C(F)(F)F)C(F)(F)F)CC[C@@H]12`
50

Next up: `C=C1CC[C@H](O)C/C1=C/C=C1\CCC[C@]2(C)[C@@H]([C@H](C)CCC(F)(F)C(C)(C)O)CC[C@@H]12`
1000

Next up: `C[C@H](CCCC(C)(C)O)[C@H]1CC[C@H]2/C(=C/[C@H]3OOCC4=C3C[C@@H](O)CC4)CCC[C@]12C`
3000

====

# Tested on: HL-60
# TEST METHOD NOTES: Evaluated for its ability to induce phagocytosis in human myeloid leukemia cells (HL-60)
# Type: functional
# Design: unit not given here
So I've got a bunch of molecules here, and I need their Phagocytosis values.
Answer as a number with no unit attached.

Phagocytosis lookup needed for `C=C1/C(=C\C=C2/CCC[C@]3(C)[C@@H]([C@H](C)CCCC(C)C)CC[C@@H]23)C[C@@H](O)C[C@@H]1O` , thanks.
320

Next up: `C=C1/C(=C\C=C2/CCC[C@]3(C)[C@@H]([C@H](C)CC[C@@H](O)C(C)C)CC[C@@H]23)C[C@@H](O)C[C@@H]1O`
1

Next up: `C=C1/C(=C\C=C2/CCC[C@]3(C)[C@@H]([C@H](C)CCCC(C)(C)O)CC[C@@H]23)C[C@@H](O)C[C@@H]1O`
1

Next up: `C[C@H](CCCC(C)(C)O)[C@H]1CC[C@H]2/C(=C/[C@H]3OOCC4=C3C[C@@H](O)C[C@@H]4O)CCC[C@]12C`
130
